B1: PCDHGA10 (parent)
chain: FGIEIEVTDINDNAPKFQAENLDV

Variants of: B1
Experiment: protein stability index of a GFP-peptide fusion (GPS, HEK-293T) (PSI 1-6); higher = more stable;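 further: lentivirally expressed fusions sorted by FACS into six bins by GFP to DsRed ratio, PSI derived from sequencing read proportions per bin multiplied by bin number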
Details: c terminus: a fixed tail appended
Parameter: protein stability index

These recorded examples may help you get a feel for the data.
D23E | 2.59
D9Y | 3.18

According to the records, this variant K16Q displays protein stability index of 3.35

According to the records, this variant V24E displays protein stability index of 3.46
